Exercise: for every item that follows, state its recorded GI50.
- Tested on: UACC-257
- ASSAY_OVERVIEW: NCI tumour cell line growth inhibition, 48 h
The source made the active and inactive calls. Cut-off read from the data, not from the text of the source: active = GI50 up to about 1.1 µM and inactive = higher.

Example cases with answers are listed next.
COMPOUND	GI50
Cc1cc(C)nc(Sc2c([N+](=O)[O-])ncn2C)n1	> 100 µM (inactive)
Cn1c(=O)n2n(c1=O)C(C)(C13CC4CC(CC(C4)C1)C3)C13CC4CC(CC1C4)CC23 (centres undefined)	> 100 µM (inactive)
O=C1C[C@H](CCC(=O)OCc2ccccc2)NC(=O)C[C@H](CCC(=O)OCc2ccccc2)NC(=O)C[C@H](CCC(=O)OCc2ccccc2)N1	> 100 µM (inactive)

Please supply GI50 for each of the following items, keeping them in order.
1. O=C1C2C3SC(c4cc5ccccc5cc43)C2C(=O)N1c1ccccc1 (centres undefined)
2. C[N+]1(C)CN(c2ccccc2)C2(CCN(CCCC(=O)c3cccs3)CC2)C1=O
3. NC(=S)NNC(=S)NC(=O)c1ccco1
4. CC[C@]12C=CCN3CCC4(c5cc(/N=N/c6ccccc6)c(OC)cc5N(C)[C@H]4[C@@](O)(C(=O)OC)[C@@H]1OC(C)=O)[C@@H]32 (some centres undefined)
5. COc1ccccc1OC(=O)/C=C/c1ccccc1
6. COC(=O)/C(=N\NC(=S)NN)C(C(=O)C(=O)Nc1ccccc1C(N)=O)c1nc2ccccc2nc1O (centres undefined)

Response:
1. > 100 µM (inactive)
2. 42.4 µM (inactive)
3. > 10 µM (inactive)
4. 16.6 µM (inactive)
5. 35.8 µM (inactive)
6. > 100 µM (inactive)

Where these numbers come from: ChEMBL document CHEMBL1201862
